SYSTEM_TESTED: CFTR G551D mutant (Homo sapiens, UniProt P13569, G551D)
Sequence (P13569 whole entry G551D): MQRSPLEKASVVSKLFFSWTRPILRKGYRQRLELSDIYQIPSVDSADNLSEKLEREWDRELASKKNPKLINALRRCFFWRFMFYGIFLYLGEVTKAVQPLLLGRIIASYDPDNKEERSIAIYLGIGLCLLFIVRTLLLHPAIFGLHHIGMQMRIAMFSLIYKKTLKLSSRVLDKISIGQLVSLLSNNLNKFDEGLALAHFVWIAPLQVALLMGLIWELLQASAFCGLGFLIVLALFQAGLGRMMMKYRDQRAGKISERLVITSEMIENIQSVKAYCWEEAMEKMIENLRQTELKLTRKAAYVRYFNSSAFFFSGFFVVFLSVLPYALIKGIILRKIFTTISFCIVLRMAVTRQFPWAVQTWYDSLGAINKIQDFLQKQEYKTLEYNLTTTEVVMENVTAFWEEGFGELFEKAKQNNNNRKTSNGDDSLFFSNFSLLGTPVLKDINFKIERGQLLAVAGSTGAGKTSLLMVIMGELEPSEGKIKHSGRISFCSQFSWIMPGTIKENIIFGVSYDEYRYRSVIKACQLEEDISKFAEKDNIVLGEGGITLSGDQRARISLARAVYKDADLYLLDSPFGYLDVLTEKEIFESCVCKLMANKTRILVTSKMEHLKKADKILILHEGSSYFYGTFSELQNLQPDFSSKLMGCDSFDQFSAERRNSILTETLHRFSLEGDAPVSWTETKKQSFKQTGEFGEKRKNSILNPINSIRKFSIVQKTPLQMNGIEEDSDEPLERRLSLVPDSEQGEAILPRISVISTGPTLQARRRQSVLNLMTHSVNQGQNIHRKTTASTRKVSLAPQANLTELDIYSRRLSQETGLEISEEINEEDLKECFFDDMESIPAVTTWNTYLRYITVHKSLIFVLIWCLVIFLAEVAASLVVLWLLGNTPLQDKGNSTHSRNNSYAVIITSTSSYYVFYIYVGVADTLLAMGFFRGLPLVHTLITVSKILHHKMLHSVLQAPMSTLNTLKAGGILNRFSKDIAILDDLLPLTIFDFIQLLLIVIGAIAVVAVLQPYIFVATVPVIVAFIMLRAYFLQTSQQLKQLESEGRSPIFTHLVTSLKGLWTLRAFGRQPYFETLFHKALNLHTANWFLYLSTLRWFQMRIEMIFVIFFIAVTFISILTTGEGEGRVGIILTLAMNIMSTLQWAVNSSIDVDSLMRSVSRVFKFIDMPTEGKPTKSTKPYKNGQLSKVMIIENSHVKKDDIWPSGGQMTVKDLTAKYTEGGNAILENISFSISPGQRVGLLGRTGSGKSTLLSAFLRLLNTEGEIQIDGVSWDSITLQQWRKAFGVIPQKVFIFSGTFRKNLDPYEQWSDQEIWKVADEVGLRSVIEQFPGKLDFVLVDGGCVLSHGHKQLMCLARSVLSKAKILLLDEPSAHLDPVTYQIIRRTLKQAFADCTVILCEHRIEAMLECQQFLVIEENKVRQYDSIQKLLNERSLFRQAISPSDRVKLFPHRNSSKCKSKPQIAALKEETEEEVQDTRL
ASSAY_INFO: YFP-halide influx assay for the CFTR-G551D mutation (HEK293 cells)
RUN_PARAMETERS: forskolin 10.67 μM
EC50 under 2 µM gets 1.0, anything at or over 2 µM gets 0.0.

Below, 6 molecules whose answers are already recorded.
[[record]]
molecule = "CC(C)Oc1ccc(S(=O)(=O)c2cnc(C(=O)NCC(O)C(F)(F)F)c(N)c2)cc1 (stereo not shown)"
category = 1.0

[[record]]
molecule = "CCS(=O)(=O)c1cc(N)c(C(=O)NC[C@H](C)O)nc1C1CC1"
category = 0.0

[[record]]
molecule = "Nc1cc(S(=O)(=O)c2ccc(OC(F)(F)F)cc2)cnc1C(=O)N1CC2(CCOC2)C1"
category = 0.0

[[record]]
molecule = "Nc1cc(S(=O)(=O)NC[C@H]2CCOC2)cnc1C(=O)NCC(O)C(F)(F)F (stereo partly shown)"
category = 0.0

[[record]]
molecule = "Nc1cc(S(=O)(=O)c2ccc(OC(F)(F)F)cc2)cnc1C(=O)N1CCC(O)C1 (stereo not shown)"
category = 0.0

[[record]]
molecule = "Nc1cc(S(=O)(=O)c2ccc(C(F)(F)F)cc2)cnc1C(=O)NCC1(O)CC1"
category = 1.0


Would you kindly look at the next entry?
Please state whether EC50 is below 2 µM for Nc1cc(S(=O)(=O)c2ccc(OC(F)(F)F)cc2)cnc1C(=O)NC1COC1
0.0

* * *

Catalogue of compounds with associated EC50
SYSTEM_TESTED: CFTR ΔF508 mutant (Homo sapiens, UniProt P13569, DEL508-508)
Sequence (P13569 with tags, fused parts or gaps DEL508-508): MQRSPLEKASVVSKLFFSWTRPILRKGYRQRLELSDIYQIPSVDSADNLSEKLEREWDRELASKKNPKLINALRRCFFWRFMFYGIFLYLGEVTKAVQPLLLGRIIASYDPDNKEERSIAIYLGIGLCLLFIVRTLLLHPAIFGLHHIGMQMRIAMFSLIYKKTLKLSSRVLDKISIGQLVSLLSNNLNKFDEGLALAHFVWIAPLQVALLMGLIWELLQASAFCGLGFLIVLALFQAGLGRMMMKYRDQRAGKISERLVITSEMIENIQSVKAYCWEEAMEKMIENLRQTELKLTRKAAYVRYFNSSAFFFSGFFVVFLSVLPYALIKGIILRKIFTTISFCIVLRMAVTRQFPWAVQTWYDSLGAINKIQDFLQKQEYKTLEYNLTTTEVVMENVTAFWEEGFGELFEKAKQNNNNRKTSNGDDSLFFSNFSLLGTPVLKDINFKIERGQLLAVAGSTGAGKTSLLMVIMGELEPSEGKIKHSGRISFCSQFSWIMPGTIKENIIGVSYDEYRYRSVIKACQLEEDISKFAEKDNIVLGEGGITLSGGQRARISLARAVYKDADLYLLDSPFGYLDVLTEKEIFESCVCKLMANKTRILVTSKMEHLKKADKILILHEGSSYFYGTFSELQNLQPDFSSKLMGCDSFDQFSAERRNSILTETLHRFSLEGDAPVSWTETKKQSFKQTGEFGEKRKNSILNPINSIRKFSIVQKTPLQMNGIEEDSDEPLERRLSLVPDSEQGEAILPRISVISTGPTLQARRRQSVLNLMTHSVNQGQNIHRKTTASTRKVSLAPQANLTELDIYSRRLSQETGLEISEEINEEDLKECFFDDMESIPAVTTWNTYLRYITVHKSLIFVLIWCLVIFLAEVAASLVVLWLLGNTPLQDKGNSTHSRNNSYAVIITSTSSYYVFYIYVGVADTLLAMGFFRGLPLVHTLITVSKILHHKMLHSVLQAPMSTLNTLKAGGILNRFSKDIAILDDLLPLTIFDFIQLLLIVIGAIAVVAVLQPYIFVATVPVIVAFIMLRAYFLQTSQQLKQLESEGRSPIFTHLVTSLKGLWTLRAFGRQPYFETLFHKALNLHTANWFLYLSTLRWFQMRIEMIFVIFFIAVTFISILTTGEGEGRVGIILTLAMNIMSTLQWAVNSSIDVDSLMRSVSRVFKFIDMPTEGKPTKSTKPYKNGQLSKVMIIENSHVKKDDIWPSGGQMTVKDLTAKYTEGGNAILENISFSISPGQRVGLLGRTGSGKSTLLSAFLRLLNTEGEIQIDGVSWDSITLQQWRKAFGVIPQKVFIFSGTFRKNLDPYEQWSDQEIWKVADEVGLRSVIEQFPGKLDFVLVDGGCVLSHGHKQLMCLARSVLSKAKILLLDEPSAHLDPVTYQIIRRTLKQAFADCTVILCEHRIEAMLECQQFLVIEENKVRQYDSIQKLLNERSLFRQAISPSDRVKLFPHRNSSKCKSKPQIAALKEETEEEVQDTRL
ASSAY_INFO: YFP-halide influx assay for the CFTR-ΔF508 mutation (CFBE41o- cells)
RUN_PARAMETERS: forskolin 10.67 μM, from (1−F/F0) vs concentration plot
Please respond with the number in nM and leave the unit unwritten.

Below, 5 compounds whose answers are already recorded.
[[record]]
compound = "Nc1cc(S(=O)(=O)c2ccc(C(F)(F)F)cc2)cnc1C(=O)NCCO [Compound 217]"
system_tested = "CFTR ΔF508 mutant (Homo sapiens, UniProt P13569, DEL508-508)"
property_label = "EC50"
reading = 36

[[record]]
compound = "COC[C@H](O)CNC(=O)c1ncc(S(=O)(=O)c2ccc(C(F)(F)F)cc2)cc1N [Compound 70]"
system_tested = "CFTR ΔF508 mutant (Homo sapiens, UniProt P13569, DEL508-508)"
property_label = "EC50"
reading = 16.9

[[record]]
compound = "CC1(CCNC(=O)c2ncc(S(=O)(=O)c3ccc(OC(F)(F)F)cc3)cc2N)CC1 [Compound 124]"
system_tested = "CFTR ΔF508 mutant (Homo sapiens, UniProt P13569, DEL508-508)"
property_label = "EC50"
reading = 100

[[record]]
compound = "C[C@@H]1CCCN1S(=O)(=O)c1cnc(C(=O)NCC(O)C(F)(F)F)c(N)c1 (some centres unmarked) [Compound 179]"
system_tested = "CFTR ΔF508 mutant (Homo sapiens, UniProt P13569, DEL508-508)"
property_label = "EC50"
reading = 27.7

[[record]]
compound = "Nc1cc(S(=O)(=O)c2cccc(F)c2)cnc1C(=O)N1CC(O)(C(F)(F)F)C1 [Compound 256]"
system_tested = "CFTR ΔF508 mutant (Homo sapiens, UniProt P13569, DEL508-508)"
property_label = "EC50"
reading = 0.66


Identify EC50 associated with the compound COCCOc1nc(C(=O)NC[C@H](C)O)c(N)cc1S(=O)(=O)c1ccc(OC(F)(F)F)cc1 [Compound 288]
8.7

Identify EC50 associated with the compound NC(=O)c1ncc(S(=O)(=O)c2ccc(OC(F)(F)F)cc2)cc1N [Compound 297]
53

Identify EC50 associated with the compound C[C@H](O)CCNC(=O)c1ncc(S(=O)(=O)c2ccc(OC(F)(F)F)cc2)cc1N [Compound 53]
41.4

* * *

SYSTEM_TESTED: CFTR G551D mutant (Homo sapiens, UniProt P13569, G551D)
ASSAY_INFO: YFP-halide influx assay for the CFTR-G551D mutation (HEK293 cells)
RUN_PARAMETERS: forskolin 10.67 μM
PROPERTY_LABEL: EC50 (nM)
Please respond with the number in nM and leave the unit unwritten.

[[record]]
compound = "Nc1cc(S(=O)(=O)c2ccc(C(F)(F)F)cc2)cnc1C(=O)NC[C@H](O)C(F)(F)F [Compound 64]"
reading = 160

[[record]]
compound = "CC1(C)CN(S(=O)(=O)c2cnc(C(=O)NCC(O)C(F)(F)F)c(N)c2)C1 (centres unmarked) [Compound 199]"
reading = 1430

[[record]]
compound = "Nc1cc(S(=O)(=O)c2ccc(OC(F)(F)F)cc2)cnc1C(=O)N1CC2(COC2)C1 [Compound 68]"
reading = 1820

[[record]]
compound = "CC(C)OC[C@@H](O)CNC(=O)c1ncc(S(=O)(=O)c2ccc(C(F)(F)F)cc2)cc1N [Compound 243]"
reading = 639

[[record]]
compound = "COC[C@H](O)CNC(=O)c1ncc(S(=O)(=O)c2ccc(OC(F)(F)F)cc2)cc1N [Compound 69]"
reading = 1080


Under CFTR G551D mutant (Homo sapiens, UniProt P13569, G551D), report EC50 for Nc1cc(S(=O)(=O)c2ccc(C(F)(F)F)cc2)cnc1C(=O)NCCOCC1CCCO1 (centres unmarked) [Compound 190]
1880

Under CFTR G551D mutant (Homo sapiens, UniProt P13569, G551D), report EC50 for COCC(O)CNC(=O)c1ncc(S(=O)(=O)c2ccccc2OC(F)(F)F)cc1N (centres unmarked) [Compound 80]
946

* * *

SYSTEM_TESTED: CFTR ΔF508 mutant (Homo sapiens, UniProt P13569, DEL508-508)
Construct: expressed in transfected cells; host or cells: CFBE41o- cells, adenoviral transduction
ASSAY_INFO: YFP-halide influx assay for the CFTR-ΔF508 mutation (CFBE41o- cells)
Format: cell-based
RUN_PARAMETERS: forskolin 10.67 μM
Catalogue of compounds with associated % Activation
Please respond with the number in % and leave the unit unwritten.

[[record]]
compound = "Nc1cc(S(=O)(=O)c2ccc(C(F)(F)F)cc2F)cnc1C(=O)N1CC(OC(F)F)C1"
property_label = "% Activation"
reading = 97.3

[[record]]
compound = "CC(C)(O)C1CN(C(=O)c2ncc(S(=O)(=O)c3ccc(OC(F)(F)F)cc3F)cc2N)C1"
property_label = "% Activation"
reading = 118.3

[[record]]
compound = "Nc1cc(S(=O)(=O)c2ccc(OC(F)(F)F)cc2)cnc1C(=O)NC[C@H](O)COCC1CC1"
property_label = "% Activation"
reading = 103.0


Next compound, % Activation to be filled in.
Under CFTR ΔF508 mutant (Homo sapiens, UniProt P13569, DEL508-508), report % Activation for CC(C)C(C)NC(=O)c1ncc(S(=O)(=O)c2ccc(C(F)(F)F)cc2)cc1N (stereo not shown)
88.8

* * *

SYSTEM_TESTED: CFTR ΔF508 mutant (Homo sapiens, UniProt P13569, DEL508-508)
Construct: expressed in transfected cells; host or cells: CFBE41o- cells, adenoviral transduction
ASSAY_INFO: YFP-halide influx assay for the CFTR-ΔF508 mutation (CFBE41o- cells)
Type: cell-based
RUN_PARAMETERS: forskolin 10.67 μM
PROPERTY_LABEL: % Activation (%)
Please respond with the number in % and leave the unit unwritten.

[[record]]
molecule = "Nc1cc(S(=O)(=O)c2ccc(OC(F)(F)F)cc2)cnc1C(=O)NCCN1CCOCC1 [Compound 9]"
reading = 97.5

[[record]]
molecule = "Nc1cc(S(=O)(=O)c2ccc(C(F)(F)F)cc2F)cnc1C(=O)NC[C@H]1CCOC1 [Compound 106]"
reading = 99.0

[[record]]
molecule = "COCC(O)CNC(=O)c1ncc(S(=O)(=O)c2ccc(OC(F)(F)F)cc2)cc1N (stereo not shown) [Compound 3]"
reading = 109.7


Next molecule, % Activation to be filled in.
Identify % Activation associated with the molecule CCC1(F)CN(C(=O)c2ncc(S(=O)(=O)c3ccc(OC(F)(F)F)cc3)cc2N)C1 [Compound 130]
93.9

* * *

SYSTEM_TESTED: CFTR G551D mutant (Homo sapiens, UniProt P13569, G551D)
Construct: expressed in transfected cells; host or cells: HEK293 cells, reverse transfection with plasmids
ASSAY_INFO: YFP-halide influx assay for the CFTR-G551D mutation (HEK293 cells)
Assay type: cell-based
RUN_PARAMETERS: forskolin 10.67 μM
PROPERTY_LABEL: % Activation (%)
Please respond with the number in % and leave the unit unwritten.

Below, 3 molecules whose answers are already recorded.
[[record]]
molecule_smiles = "COC[C@H](O)CNC(=O)c1ncc(S(=O)(=O)c2ccc(C(F)(F)F)cc2F)cc1N"
system_tested = "CFTR G551D mutant (Homo sapiens, UniProt P13569, G551D)"
reading = 91.7

[[record]]
molecule_smiles = "Nc1cc(S(=O)(=O)c2ccc(OC(F)(F)F)cc2)cnc1C(=O)N1CC[C@H](F)C1"
system_tested = "CFTR G551D mutant (Homo sapiens, UniProt P13569, G551D)"
reading = 90.3

[[record]]
molecule_smiles = "COC1CN(C(=O)c2ncc(S(=O)(=O)c3ccc(OC(F)(F)F)cc3)cc2N)C1"
system_tested = "CFTR G551D mutant (Homo sapiens, UniProt P13569, G551D)"
reading = 64.3


Next molecule, % Activation to be filled in.
Identify % Activation associated with the molecule CC1(CCNC(=O)c2ncc(S(=O)(=O)c3ccc(OC(F)(F)F)cc3)cc2N)CC1
57.0

Measured values drawn from patent US10047051B2 for this set.
